Values compiled from patent US20090131470A1.

MEASURED TARGET: CDK-2 enzyme, complexed with cyclin A (Homo sapiens)
ASSAY INFO: CDK2 kinase assay (33P peptide phosphorylation)
ASSAY CONDITIONS: 0.1 mM ATP, cyclin A complex
OUTCOME MEASURE: pIC50
Scale explanation: pIC50 corresponds to minus log10 of a concentration expressed in moles per litre.

| COMPOUND | pIC50 |
| --- | --- |
| Cc1[nH]nc(-c2nc3cc4cn[nH]c4cc3[nH]2)c1C(=O)NCC1CCNCC1 [Example 22] | 4.51 |

**Query** // fetch pIC50 given entry Cc1[nH]nc(-c2nc3cc4ccccc4cc3[nH]2)c1C(=O)NCC1CCNC1 (centres unmarked) [Example 27]
**Result** 5.20

**Query** Please supply the value of reported pIC50 for the item Cc1[nH]nc(-c2nc3ccc(C(=O)NCC(C)c4ccccc4)cc3[nH]2)c1C(=O)NC1CCNCC1 (centres unmarked) [Example 32]
**Result** 4.81

**Query** # return recorded pIC50 for input Cc1cc2nc(-c3n[nH]c(C)c3C(=O)NC3CCN(C)CC3)[nH]c2cc1C [Example 29]
**Result** 5.08

**Query** Supply reported pIC50 belonging to this compound: Cc1[nH]nc(-c2nc3cc(C#N)ccc3[nH]2)c1C(=O)NC1CCNCC1 [Example 18]
**Result** 4.91

**Query** Tell us which pIC50 value is on record for Cc1[nH]nc(-c2nc3ccc(C(C)C)cc3[nH]2)c1C(=O)N[C@@H]1CN2CCC1CC2 [Example 43]
**Result** 4.83

**Query** Provide pIC50 value for the following compound: Cc1[nH]nc(-c2nc3cc(C(=O)NC(C)C)ccc3[nH]2)c1C(=O)NC1CCNCC1 [Example 24]
**Result** 5.19

**Query** Assign pIC50 to the following record: Cc1[nH]nc(-c2nc3cc(-c4cccc5c4CCO5)ccc3[nH]2)c1C(=O)NC1CCNCC1 [Example 23]
**Result** 4.68

**Query** Give a short answer stating reported pIC50 for Cc1[nH]nc(-c2nc3ccccc3[nH]2)c1C(=O)NCCCN [Example 4] .
**Result** 4.40

**Query** Quick one: give measured pIC50 for Cc1[nH]nc(-c2nc3cc4cn[nH]c4cc3[nH]2)c1C(=O)NC1CCNCC1 [Example 14]
**Result** 5.29

---

MEASURED TARGET: Akt1 (Homo sapiens, UniProt P31749)
Sequence (P31749 whole entry, species assumed): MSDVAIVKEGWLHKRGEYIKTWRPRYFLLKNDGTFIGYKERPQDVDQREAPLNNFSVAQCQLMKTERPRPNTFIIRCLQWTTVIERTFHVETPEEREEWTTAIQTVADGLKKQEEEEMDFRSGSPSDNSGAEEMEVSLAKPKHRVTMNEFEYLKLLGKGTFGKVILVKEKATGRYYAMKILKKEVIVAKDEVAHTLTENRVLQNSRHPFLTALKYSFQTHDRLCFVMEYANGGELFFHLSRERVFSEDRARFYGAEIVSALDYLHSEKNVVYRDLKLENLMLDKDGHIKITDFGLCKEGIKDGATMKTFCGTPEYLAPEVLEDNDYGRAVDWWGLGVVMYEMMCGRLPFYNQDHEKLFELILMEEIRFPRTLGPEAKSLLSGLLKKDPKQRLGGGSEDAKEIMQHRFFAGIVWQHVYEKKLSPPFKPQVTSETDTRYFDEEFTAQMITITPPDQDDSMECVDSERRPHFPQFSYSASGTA
OUTCOME MEASURE: IC50 (µM)
State just the number; it will be interpreted in µM.

| COMPOUND | MEASURED TARGET | IC50 / µM |
| --- | --- | --- |
| Cc1cc2nc(-c3n[nH]c(C)c3C(=O)NC3CCCN(C)C3)[nH]c2cc1C (centres unmarked) | Akt1 (Homo sapiens, UniProt P31749) | 41.3 |

Now consider a different compound.
**Query** Look up Akt1 (Homo sapiens, UniProt P31749) data: IC50 of COCCNC(=O)c1ccc2nc(-c3n[nH]c(C)c3C(=O)NC3CCNCC3)[nH]c2c1 , then report it.
**Result** 31.4

---

MEASURED TARGET: UniProt O15530
ASSAY INFO: PDK1 kinase assay (33P peptide phosphorylation)
Format: biochemical
ASSAY CONDITIONS: 0.01 mM ATP, 60 min at 30° C.; read-out: PDK-1 IC50
# key: entry, value: pIC50
Note on pIC50: it is the negative log10 of concentration, concentration in mol/L.

**Query** # assay system UniProt O15530: give pIC50 of Cc1[nH]nc(-c2nc3cc(F)c(NC(=O)C4CC4)cc3[nH]2)c1C(=O)NC1CCN(C)CC1
**Result** 6.67

**Query** Send back UniProt O15530 pIC50 of Cc1[nH]nc(-c2nc3cc(-c4cccc5c4CCO5)ccc3[nH]2)c1C(=O)NC1CCNCC1 only.
**Result** 6.90

---

MEASURED TARGET: UniProt P31749
pIC50: −log10 of the molar value.
OUTCOME MEASURE: pIC50

These solved cases illustrate the format of a correct answer.
| STRUCTURE | pIC50 |
| --- | --- |
| Cc1[nH]nc(-c2nc3cc(C#N)ccc3[nH]2)c1C(=O)NC1CCNCC1 | < 4.30 |
| Cc1[nH]nc(-c2nc3ccc(NC(=O)C(C)C)cc3[nH]2)c1C(=O)NC1CCN(C)CC1 | < 4.30 |

Moving on to the next compound.
**Query** With UniProt P31749 as the test system, provide measured pIC50 for this compound: Cc1[nH]nc(-c2nc3ccc(C(C)C)cc3[nH]2)c1C(=O)NC1CCN(C)CC1
**Result** < 5.00

---

MEASURED TARGET: PDK1 (Homo sapiens, UniProt O15530)
Sequence (O15530 1-556): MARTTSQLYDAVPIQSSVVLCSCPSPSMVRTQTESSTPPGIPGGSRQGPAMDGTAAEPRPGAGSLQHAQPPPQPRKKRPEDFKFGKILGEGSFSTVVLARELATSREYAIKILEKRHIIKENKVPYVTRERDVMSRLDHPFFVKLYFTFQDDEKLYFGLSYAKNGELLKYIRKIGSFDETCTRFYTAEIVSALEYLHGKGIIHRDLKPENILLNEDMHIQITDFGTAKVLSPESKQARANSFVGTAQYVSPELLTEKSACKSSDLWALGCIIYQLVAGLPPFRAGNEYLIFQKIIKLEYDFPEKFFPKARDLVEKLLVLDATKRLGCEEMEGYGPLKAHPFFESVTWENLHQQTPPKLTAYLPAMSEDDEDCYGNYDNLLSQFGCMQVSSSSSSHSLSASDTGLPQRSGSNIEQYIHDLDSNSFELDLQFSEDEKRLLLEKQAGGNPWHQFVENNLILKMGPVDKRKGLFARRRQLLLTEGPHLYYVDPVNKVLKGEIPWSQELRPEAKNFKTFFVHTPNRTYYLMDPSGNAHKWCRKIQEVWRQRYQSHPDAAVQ
pIC50: −log10 of the molar value.
We use 7 as the dividing line for pIC50: on or above the line is Satisfied, below is Not satisfied.

A selection of reference data follows.
| MOLECULE | CLASS LABEL |
| --- | --- |
| Cc1cc2nc(-c3n[nH]c(C)c3C(=O)NC3CCCN(C)C3)[nH]c2cc1C (stereo not shown) | Not satisfied |
| O=C(NC1CCNCC1)c1c[nH]nc1-c1nc2ccccc2[nH]1 | Not satisfied |
| Cc1[nH]nc(-c2nc3ccccc3[nH]2)c1C(=O)NC1CCCNC1 (stereo not shown) | Satisfied |

**Query** Confirm if pIC50 reported for the molecule Cc1[nH]nc(-c2nc3cc(Cl)ccc3[nH]2)c1C(=O)NC1CCNCC1 is 7 or above.
**Result** Not satisfied

---

# IC50 per record follows
MEASURED TARGET: PDK1 (Homo sapiens)
Sequence (O15530 1-556): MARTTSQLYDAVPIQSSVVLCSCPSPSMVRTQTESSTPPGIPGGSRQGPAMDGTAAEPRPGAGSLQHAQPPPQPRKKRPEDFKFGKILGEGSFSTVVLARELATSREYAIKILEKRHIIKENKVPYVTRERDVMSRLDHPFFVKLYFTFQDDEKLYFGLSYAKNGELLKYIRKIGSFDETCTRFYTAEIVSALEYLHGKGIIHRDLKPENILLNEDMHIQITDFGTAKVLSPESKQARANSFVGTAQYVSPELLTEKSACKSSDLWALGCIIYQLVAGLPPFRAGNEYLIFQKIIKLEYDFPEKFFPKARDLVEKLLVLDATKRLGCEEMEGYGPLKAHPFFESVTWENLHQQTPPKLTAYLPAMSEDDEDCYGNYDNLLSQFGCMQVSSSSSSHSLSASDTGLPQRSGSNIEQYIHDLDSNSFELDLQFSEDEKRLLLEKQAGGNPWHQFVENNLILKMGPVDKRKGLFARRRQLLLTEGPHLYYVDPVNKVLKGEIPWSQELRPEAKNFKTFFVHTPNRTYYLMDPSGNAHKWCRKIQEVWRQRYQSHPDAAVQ
Lab note: write values as number then unit, every time.

| STRUCTURE | MEASURED TARGET | RECORDED RESULT |
| --- | --- | --- |
| Cc1[nH]nc(-c2nc3ccc(NC(=O)C(C)C)cc3[nH]2)c1C(=O)NC1CCN(C)CC1 | PDK1 (Homo sapiens) | 0.074 µM |
| Cc1[nH]nc(-c2nc3ccccc3[nH]2)c1C(=O)NC1CCN(C)CC1 | PDK1 (Homo sapiens) | 0.139 µM |

# evaluate next
**Query** Return IC50 for the following compound: Cc1[nH]nc(-c2nc3ccc(NC(=O)CC(C)C)cc3[nH]2)c1C(=O)NC1CCN(C)CC1
**Result** 0.095 µM
